Data origin, for the record: patent US20160120863A1

- MEASURED_TARGET: human GLUT1 (Homo sapiens, UniProt P11166)
- Construct: expressed in transfected cells
- ASSAY_NAME: [3H]-deoxy-D-glucose uptake assay, GLUT1
- Format: cell-based
- COND: [3H]-deoxy-D-glucose uptake in HEK293 cells stably expressing human GLUT1
OBSERVED_PROPERTY: GLUT1 pIC50

molecule=CC(=O)N1CCN(Cc2c(-c3ccc(Cl)cc3Cl)nc3cnc(C(C)C)cn23)CC1 result="+++ (pIC50 ≧ 6.00)"
molecule=CS(=O)(=O)Nc1ccc2nc(-c3ccc(Cl)cc3)c(CN3CCOCC3)n2c1 result="++ (pIC50 5.00-5.99)"
molecule=O=C1CCCN1c1ccc2nc(-c3ccc(Cl)cc3)c(CN3CCOCC3)n2c1 result="+ (pIC50 4.00-4.99)"
molecule=CC(=O)N1CCN(Cc2c(-c3ccc(Cl)cc3)nc3ccc(-c4ccccc4C#N)cn23)CC1 result="+++ (pIC50 ≧ 6.00)"
molecule=CC(=O)N1CCN(Cc2c(-c3ccc(Cl)cc3)nc3ccc(N(C)S(=O)(=O)C(C)C)cn23)CC1 result="+++ (pIC50 ≧ 6.00)"
molecule=COc1cccc(-c2nc3ccc(-c4ccccc4)cn3c2CN2CCN(C(=O)CC(C)C)CC2)c1 result="++ (pIC50 5.00-5.99)"
molecule=Cn1cc(C(=O)N2CCN(Cc3c(-c4ccc(Cl)cc4Cl)nc4ccc(NS(C)(=O)=O)cn34)CC2)cn1 result="+++ (pIC50 ≧ 6.00)"
molecule=Clc1ccc(-c2nc3ccc(-c4cccs4)cn3c2CN2CCOCC2)cc1 result="++ (pIC50 5.00-5.99)"
molecule=COc1cccc(-c2nc3ccc(-c4ccccc4)cn3c2CN2CCN(C(=O)C3CCCC3)CC2)c1 result="+++ (pIC50 ≧ 6.00)"
molecule=O=C(O)CN1CCN(Cc2c(-c3ccc(Cl)cc3)nc3ccc(-c4ccccc4)cn23)CC1 result="+− (pIC50 < 4.00)"
molecule=CN(c1ccc2nc(-c3ccc(Cl)cc3Cl)c(CN3CCn4ncnc4C3)n2c1)S(C)(=O)=O result="+++ (pIC50 ≧ 6.00)"
molecule=O=C(Cc1c(-c2ccc(Cl)cc2)nc2ccc(-c3ccccc3)cn12)N1CCOCC1 result="+− (pIC50 < 4.00)"
molecule=O=C(c1ccnnc1)N1CCN(Cc2c(-c3ccc(Cl)cc3)nc3ccc(-c4ccccc4)cn23)CC1 result="+++ (pIC50 ≧ 6.00)"
molecule=C=C(C)c1cn2c(CN3CCOCC3)c(-c3ccc(Cl)cc3)nc2cn1 result="+++ (pIC50 ≧ 6.00)"
molecule=CCS(=O)(=O)N(C)c1ccc2nc(-c3ccc(Cl)cc3)c(CN3CCN(C(C)=O)CC3)n2c1 result="+++ (pIC50 ≧ 6.00)"
molecule=CN(C)C(=O)CNCc1c(-c2ccc(Cl)cc2)nc2ccc(-c3ccccc3)cn12 result="+ (pIC50 4.00-4.99)"
molecule=O=C(CO)N1CCN(Cc2c(-c3ccc(Cl)cc3)nc3ccc(-c4ccccc4)cn23)CC1 result="+++ (pIC50 ≧ 6.00)"
molecule=COc1ccccc1C(=O)N1CCN(Cc2c(-c3ccc(Cl)cc3)nc3ccc(-c4ccccc4)cn23)CC1 result="+++ (pIC50 ≧ 6.00)"
molecule=O=C(C1CCCC1)N1CCN(Cc2c(-c3ccc(Cl)cc3)nc3ccc(-c4ccccc4)cn23)CC1 result="+++ (pIC50 ≧ 6.00)"
molecule=N#Cc1cccc(-c2ccc3nc(-c4ccc(Cl)cc4)c(CN4CCOCC4)n3c2)c1 result="+− (pIC50 < 4.00)"
molecule=COc1cccc(-c2nc3ccc(C4CC4)cn3c2CN2CCN(C(=O)C3CCC3)CC2)c1 result="+++ (pIC50 ≧ 6.00)"
molecule=COc1cccc(-c2nc3ccc(-c4ccccc4)cn3c2CN2CCN(C(=O)C3CCC3)CC2)c1 result="++ (pIC50 5.00-5.99)"
molecule=Clc1ccc(-c2nc3ccc(-c4ncon4)cn3c2CN2CCOCC2)cc1 result="++ (pIC50 5.00-5.99)"
molecule=Clc1ccc(-c2nc3ccc(-c4ccccc4)cn3c2CN2CCn3ncnc3C2)cc1 result="++ (pIC50 5.00-5.99)"
molecule=CC(C)(C)CC(=O)N1CCN(Cc2c(-c3ccc(Cl)cc3)nc3ccc(-c4ccccc4)cn23)CC1 result="++ (pIC50 5.00-5.99)"
molecule=O=C(c1cc[nH]c(=O)c1)N1CCN(Cc2c(-c3ccc(Cl)cc3)nc3ccc(-c4ccccc4)cn23)CC1 result="+++ (pIC50 ≧ 6.00)"
molecule=CN1CCN(Cc2c(-c3ccc(Cl)cc3)nc3ccc(-c4ccccc4)cn23)CC1 result="+ (pIC50 4.00-4.99)"
molecule=O=C(C1CCOCC1)N1CCN(Cc2c(-c3ccc(Cl)cc3)nc3cnc(C4CC4)cn23)CC1 result="+++ (pIC50 ≧ 6.00)"
molecule=Clc1ccc(-c2nc3ccc(-c4ccccc4)cn3c2CN2CCNCC2)cc1 result="+ (pIC50 4.00-4.99)"
molecule=O=C(c1cnccn1)N1CCN(Cc2c(-c3ccc(Cl)cc3)nc3ccc(C4CC4)cn23)CC1 result="+++ (pIC50 ≧ 6.00)"
molecule=Cc1c(-c2ccccc2)ccc2nc(-c3ccc(Cl)cc3)c(CN3CCOCC3)n12 result="+++ (pIC50 ≧ 6.00)"
molecule=CCCS(=O)(=O)Nc1ccc2nc(-c3ccc(Cl)cc3)c(CN3CCN(C(C)=O)CC3)n2c1 result="+++ (pIC50 ≧ 6.00)"

* * *

- MEASURED_TARGET: human GLUT1 (Homo sapiens, UniProt P11166)
- Construct: expressed in transfected cells
- Sequence (P11166 1-492): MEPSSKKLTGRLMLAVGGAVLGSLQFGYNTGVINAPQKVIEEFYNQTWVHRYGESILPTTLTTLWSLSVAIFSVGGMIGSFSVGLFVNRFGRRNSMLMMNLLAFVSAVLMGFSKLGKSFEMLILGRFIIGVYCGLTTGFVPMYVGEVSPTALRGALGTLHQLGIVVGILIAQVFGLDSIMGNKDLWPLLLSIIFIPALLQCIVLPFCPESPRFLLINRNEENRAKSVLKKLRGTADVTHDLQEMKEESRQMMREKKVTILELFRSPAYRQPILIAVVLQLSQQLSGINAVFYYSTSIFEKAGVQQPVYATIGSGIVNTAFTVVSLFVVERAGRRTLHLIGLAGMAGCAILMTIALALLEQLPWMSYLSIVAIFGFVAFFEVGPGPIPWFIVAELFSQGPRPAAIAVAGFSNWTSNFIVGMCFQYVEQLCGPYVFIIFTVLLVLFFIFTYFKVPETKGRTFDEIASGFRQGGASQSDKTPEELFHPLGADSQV
- ASSAY_NAME: [3H]-deoxy-D-glucose uptake assay, GLUT1
- Assay type: cell-based
- COND: [3H]-deoxy-D-glucose uptake in HEK293 cells stably expressing human GLUT1
OBSERVED_PROPERTY: GLUT1 pIC50

molecule=CCN(CC)C(=O)c1ccc2nc(-c3ccc(Cl)cc3)c(CN3CCOCC3)n2c1 result="+ (pIC50 4.00-4.99)"
molecule=NC(=O)c1ccc(-c2ccc3nc(-c4ccc(Cl)cc4)c(CN4CCOCC4)n3c2)cc1 result="+ (pIC50 4.00-4.99)"
molecule=CCC(=O)N1CCN(Cc2c(-c3ccc(Cl)cc3)nc3ccc(-c4ccccc4C#N)cn23)CC1 result="+++ (pIC50 ≧ 6.00)"
molecule=Fc1ccccc1-c1ccc2nc(-c3ccc(Cl)cc3)c(CN3CCOCC3)n2c1 result="+++ (pIC50 ≧ 6.00)"
molecule=O=C(CO)N1CCN(Cc2c(-c3ccc(Cl)cc3Cl)nc3cnc(C4CC4)cn23)CC1 result="+++ (pIC50 ≧ 6.00)"
molecule=Clc1ccc(-c2nc3ccc(Br)cn3c2CN2CCOCC2)cc1 result="+ (pIC50 4.00-4.99)"
molecule=CC(=O)N1CCN(Cc2c(-c3ccc(Cl)cc3)nc3ccc(-c4ncon4)cn23)CC1 result="+++ (pIC50 ≧ 6.00)"

* * *

- MEASURED_TARGET: human GLUT1 (Homo sapiens, UniProt P11166)
- Construct: expressed in transfected cells
- Sequence (P11166 1-492): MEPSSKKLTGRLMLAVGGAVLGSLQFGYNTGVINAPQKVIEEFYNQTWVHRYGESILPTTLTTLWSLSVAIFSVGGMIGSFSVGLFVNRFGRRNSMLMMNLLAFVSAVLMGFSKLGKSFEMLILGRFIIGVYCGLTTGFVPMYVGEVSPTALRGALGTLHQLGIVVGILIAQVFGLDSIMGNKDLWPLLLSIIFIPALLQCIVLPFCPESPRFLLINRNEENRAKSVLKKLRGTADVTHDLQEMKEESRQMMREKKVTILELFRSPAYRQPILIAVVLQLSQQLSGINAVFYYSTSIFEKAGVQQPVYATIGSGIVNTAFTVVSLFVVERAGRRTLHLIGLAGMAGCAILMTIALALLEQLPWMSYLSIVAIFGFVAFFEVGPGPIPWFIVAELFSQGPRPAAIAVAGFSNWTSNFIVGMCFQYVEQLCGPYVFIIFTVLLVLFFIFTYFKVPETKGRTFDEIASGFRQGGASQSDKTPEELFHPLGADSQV
- ASSAY_NAME: [3H]-deoxy-D-glucose uptake assay, GLUT1
- Format: cell-based
- COND: [3H]-deoxy-D-glucose uptake in HEK293 cells stably expressing human GLUT1
OBSERVED_PROPERTY: GLUT1 pIC50

compound="COCc1c(-c2ccc(Cl)cc2)nc2ccc(-c3ccccc3)cn12 [Compound 73]" result="+ (pIC50 4.00-4.99)"
compound="COc1cccc(-c2nc3ccc(-c4ccccc4)cn3c2CN2CCN(C(=O)CC(C)(C)C)CC2)c1 [Compound 65]" result="++ (pIC50 5.00-5.99)"
compound="O=C1CN(Cc2c(-c3ccc(Cl)cc3)nc3ccc(-c4ccccc4)cn23)CCN1Cc1ccccc1 [Compound 134]" result="++ (pIC50 5.00-5.99)"
compound="O=C(c1ccccc1Cl)N1CCN(Cc2c(-c3ccc(Cl)cc3)nc3ccc(-c4ccccc4)cn23)CC1 [Compound 64]" result="+ (pIC50 4.00-4.99)"
compound="Clc1ccc(-c2nc3ccc(C4=CCCC4)cn3c2CN2CCOCC2)cc1 [Compound 177]" result="+ (pIC50 4.00-4.99)"
compound="COc1cccc(-c2nc3ccc(-c4ccccc4)cn3c2CN2CCN(C(=O)c3ccccc3Cl)CC2)c1 [Compound 39]" result="+ (pIC50 4.00-4.99)"
